# Tested Target: T1, rat PDGFRB extracellular domain (rat, UniProt Q05030 32-531)
# T1 construct: extracellular domain; also called rPDGFRB-ECD; rat PDGFRB ectodomain
# T1 sequence (looked up): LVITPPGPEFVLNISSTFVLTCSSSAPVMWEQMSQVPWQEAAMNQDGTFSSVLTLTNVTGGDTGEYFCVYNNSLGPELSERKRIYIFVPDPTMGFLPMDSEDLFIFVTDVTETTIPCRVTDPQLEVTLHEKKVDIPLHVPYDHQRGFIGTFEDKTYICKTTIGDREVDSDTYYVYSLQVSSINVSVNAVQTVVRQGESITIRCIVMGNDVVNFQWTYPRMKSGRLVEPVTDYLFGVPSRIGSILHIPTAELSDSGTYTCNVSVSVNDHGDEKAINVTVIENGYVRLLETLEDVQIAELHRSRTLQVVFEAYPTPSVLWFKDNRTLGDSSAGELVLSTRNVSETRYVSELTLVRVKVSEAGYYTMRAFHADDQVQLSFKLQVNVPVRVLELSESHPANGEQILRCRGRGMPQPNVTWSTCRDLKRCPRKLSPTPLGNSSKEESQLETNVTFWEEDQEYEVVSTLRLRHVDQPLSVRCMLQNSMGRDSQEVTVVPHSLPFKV
# Experimental Protocol: binding assay on immobilised rat PDGFRB ectodomain, apparent affinity (Example 4)
Quantity: Kd (nM)
Just the number in nM, nothing appended.

Could you tell me which Kd is on file for SP28P (VHH, Llama VHH; on phage in the phage ELISA) VHH: EVQLVESGGGLVQAGGSLRLSCAASGSIVSFNGINWYRQAPGKQREWVGGITQGGNTMYADSVRGRFTISRDNTKNTMYLQMNSLKPEDTAVYYCRRPPVASWGQGTQVTVSS ?
6

Could you tell me which Kd is on file for SP31P (VHH, Llama VHH; on phage in the phage ELISA) VHH: EVQLVESGGGLVQAGGSLRLSCAASRGTFGTYIMGWFRQAPGKEREFVAAISWRGANTYYGYSVKGRFTISRDNAKNTMYLQMADLKPEDTADYYCGVHLNGTPYYYASGYRYWGQGTQVTVSS ?
276

Could you tell me which Kd is on file for SP30P (VHH, Llama VHH; on phage in the phage ELISA) VHH: EVQLVESGGGLVQAGGSLRLSCAASRGTFGTDIMGWFRQAPGKEREFVAAISWRGANTYYGYSVKGRFTISRDNAKNTMYLQMADLKPEDTADYYCGVHLNGTPYYYASGYRYWGQGTQVTVSS ?
12.2

Could you tell me which Kd is on file for SP36P (VHH, Llama VHH; on phage in the phage ELISA) VHH: EVQLVESGGGLVQAGGSLRLSCTPSITTAGTTIMAWFRQAPGNEREFVAAIWGSKTAYGDSMKGRLTISRDNVRDNGQKTVFLQMNNLQLQDTATYYCAASSGGYVHSSTSYEIWGRGTQVTVSS ?
31

Could you tell me which Kd is on file for SP27P (VHH, Llama VHH; on phage in the phage ELISA) VHH: EVQLVESGGGLVQIGDSLRLSCAASGGTFNRYGMGWFRQAPGKEREFVAAIRWDGVDTNYADFVKGRFTISRYNAKNTAYLQMNSLKPEDTAVYYCAADRRGLYTKHAHRYDYWGQGTQVTVSS ?
25.5
